Test system KDM5B enzyme (Homo sapiens), pIC50 listed for each of the compounds.
pIC50: −log10 of the molar value.

>  <compound>
O=C(O)c1c(NCc2cc(Cl)cc(Cl)c2)ccc2nccn12 [Example 18]

>  <pIC50>
< 6.00

$$$$
>  <compound>
O=C(O)c1c(NCc2ccc(Oc3ccc(F)cc3)cc2)ccc2nccn12 [Example 54]

>  <pIC50>
< 6.00

$$$$
>  <compound>
O=C(O)c1c(NCc2ccc(N3CCOCC3)cc2)ccc2nccn12 [Example 64]

>  <pIC50>
< 6.00

$$$$
>  <compound>
COc1ccc(Cl)cc1CNc1ccc2ncc(C(=O)O)n2c1 [Example 112]

>  <pIC50>
< 6.00

$$$$
>  <compound>
O=C(O)c1c(NCc2cc(C(F)(F)F)ccc2Cl)ccc2nccn12 [Example 5]

>  <pIC50>
< 6.00

$$$$
>  <compound>
Cc1ccc(Cl)cc1CNc1ccc2nccn2c1C(=O)O [Example 26]

>  <pIC50>
6.00 to 6.30

$$$$
>  <compound>
CS(=O)(=O)c1cccc(CNc2ccc3nccn3c2C(=O)O)c1 [Example 88]

>  <pIC50>
≥ 6.30

$$$$
>  <compound>
Cc1ccc(CNc2ccc3nccn3c2C(=O)O)c(F)c1F [Example 33]

>  <pIC50>
< 6.00

$$$$
>  <compound>
O=C(O)c1c(NCc2cccc(Br)c2)ccc2nccn12 [Example 4]

>  <pIC50>
≥ 6.30

$$$$
>  <compound>
COc1cc(Cl)ccc1CNc1cc(C(=O)O)n2ccnc2c1 [Example 122]

>  <pIC50>
< 6.00

$$$$
>  <compound>
Cn1nccc1-c1cccc(CNc2ccc3nccn3c2C(=O)O)c1 [Example 127]

>  <pIC50>
≥ 6.30

$$$$
>  <compound>
O=C(O)c1c(NCc2cccc(F)c2F)ccc2nccn12 [Example 79]

>  <pIC50>
< 6.00

$$$$
>  <compound>
O=C(O)c1c(NCc2ccc(Cl)c(F)c2)ccc2nccn12 [Example 58]

>  <pIC50>
< 6.00

$$$$
>  <compound>
O=C(O)c1c(NCc2cc(F)ccc2F)ccc2nccn12 [Example 82]

>  <pIC50>
6.00 to 6.30

$$$$
>  <compound>
CCCCc1ccc(CNc2ccc3nccn3c2C(=O)O)cc1 [Example 65]

>  <pIC50>
< 6.00

$$$$
>  <compound>
O=C(O)c1c(NCc2ccc(F)c(Br)c2)ccc2nccn12 [Example 90]

>  <pIC50>
< 6.00

$$$$
>  <compound>
O=C(O)c1c(NCc2cc(C(F)(F)F)ccc2F)ccc2nccn12 [Example 43]

>  <pIC50>
< 6.00

$$$$
>  <compound>
O=C(O)c1c(NCc2ccc(C(F)(F)F)cc2)ccc2nccn12 [Example 55]

>  <pIC50>
6.00 to 6.30

$$$$
